- test-method-notes: clinical
- study-conditions: human, in vivo, 75 mg/m2
test-readout: AUC(0-t) (ng·h/mL)
A number alone suffices; assume ng·h/mL.

Entry CN(C)C/C=C/C(=O)Nc1cc2c(Nc3ccc(F)c(Cl)c3)ncnc2cc1O[C@H]1CCOC1 has what AUC(0-t)? 879

---

- test-method-notes: clinical
- study-conditions: human, in vivo, Docetaxel Vz, gMean
test-readout: Vd (L)
Quick note: give the figure in L, leave out the unit.

Quick one: Vd for CC(=O)O[C@@]12CO[C@@H]1C[C@H](O)[C@@]1(C)C(=O)[C@H](O)C3=C(C)[C@@H](OC(=O)[C@H](O)[C@@H](NC(=O)OC(C)(C)C)c4ccccc4)C[C@@](O)([C@@H](OC(=O)c4ccccc4)[C@H]21)C3(C)C ? 1290
